assay: solvent given as SMILES; details: in Cc1ccccc1
Flag rule - fluorescence lifetime less than 4 ns flags YES; the remaining entries get NO.

Completed entries (count: 5):
c1ccc(N(c2ccccc2)c2c3ccccc3c(N(c3ccccc3)c3ccccc3)c3ccccc23)cc1	NO
CC(C)(C)c1ccc2c(c1)c1cc(C(C)(C)C)ccc1n2-c1ccc2c(c1)C(=O)c1ccc(-n3c4ccc(C(C)(C)C)cc4c4cc(C(C)(C)C)ccc43)cc1C2=O	NO
CCOC(=O)C(C(=O)OCC)C1=[N+]2C(=C(c3ccc(C)cc3)c3ccc(C(C(=O)OCC)C(=O)OCC)n3[B-]2(F)F)C=C1	NO
CN(C)c1ccc2nc(/C=C/c3cc4c5c(c3)CCCN5CCC4)c(=O)oc2c1	YES
c1ccc(-c2cc(-c3ccc4ccc5c(-c6ccnc(-c7ccccn7)c6)ccc6ccc3c4c65)ccn2)nc1	YES

Please determine if Nc1ccc2c(c1)C(=O)N(C13C[C@H]4C[C@@H](C1)C[C@@H](C3)C4)C2=O is below 4 ns in terms of fluorescence lifetime. NO

Ok, now CCCCC(CC)CN1C(=O)c2cc(Oc3ccc(OC)cc3)c3c4c(Cl)cc5c6c(cc(Cl)c(c7c(Oc8ccc(OC)cc8)cc(c2c37)C1=O)c64)C(=O)N(c1c(C(C)C)cccc1C(C)C)C5=O (stereo not drawn) YES

Ok, now COc1ccc(N(c2ccccc2)c2ccc(OC)cc2)cc1 YES
